system: HOP-92; test: NCI tumour cell line growth inhibition, 48 h
Activity calls are given as the source filed them. Cut-off read from the data, not from the text of the source: active = GI50 up to about 1.1 µM and inactive = higher.
reported endpoint: GI50

compound: C1CCNCC1.Oc1ncnc2[nH]cc(CN3CCCCC3)c12
reported endpoint: GI50
result: 77.3 µM (inactive)
//
compound: CC(NNC(=O)c1ccncc1)c1ccccc1 (stereo not drawn)
reported endpoint: GI50
result: > 100 µM (inactive)

Now consider the entry below.
Query string: Using the record for CCOC(=O)C1(C#N)C(C#N)(C#N)C1(C#N)C#N , report its GI50.
Result string: > 100 µM (inactive)

* * *

test system: K562; assay: NCI tumour cell line growth inhibition, 48 h
Active and inactive are the calls of the source. Cut-off read from the data, not from the text of the source: active = GI50 up to about 1.1 µM and inactive = higher.
// allowed return values: true for active, false for inactive

Here's what some known entries look like.
compound: COc1ccc(/C=C2/SC(c3c(O)ccc4ccccc34)N(NC(=O)CCCCCCCCC(=O)NN3C(=O)/C(=C\c4ccc(OC)c(OC)c4)SC3c3c(O)ccc4ccccc34)C2=O)cc1OC (stereo unspecified)
answer label: false
--
compound: Cc1c(N(C)C)ccc2c(=O)c3cccc(CC(=O)O)c3oc12
answer label: false
--
compound: O=C(O)CCC(NC(=O)c1ccc(Nc2nc3ccc(C(F)(F)F)cc3nc2C(=O)O)cc1)C(=O)O (stereo unspecified)
answer label: false
--
compound: CC(NC1=NCCO1)c1ccco1 (stereo unspecified)
answer label: false

# input for lookup
Query string: Recorded test call requested for FC(F)(F)c1ccc2c(c1)N(CCCNCCN1CCOCC1)c1ccccc1S2
Result string: false

* * *

tested on: U-251; assay: NCI tumour cell line growth inhibition, 48 h
Activity calls are given as the source filed them. Rule as the data show it: active = GI50 up to about 1.1 µM and inactive = higher.
reported endpoint: GI50

Consider the reported GI50 for these compounds:
compound: CCCCCCC(=O)O[C@H]1CC[C@H]2[C@@H]3CCC4C/C(=N/NC(=O)c5cccc6c(=O)c7ccccc7[nH]c56)C=C(C)[C@]4(C)[C@H]3CC[C@]12C (stereo not given in full)
GI50: > 25 µM (inactive)

compound: Cc1nc2ccc(S(=O)(=O)NS(=O)(=O)c3ccc(-c4ccccc4)cc3)cc2c(=O)n1NS(=O)(=O)c1ccc(-c2ccccc2)cc1
GI50: > 100 µM (inactive)

compound: Cc1cc2c(cc1C)C(=O)C1(C2)Cc2c(C)ccc(C)c2C1=O (stereo not given)
GI50: > 100 µM (inactive)

Query string: Give U-251 GI50 for CC(=O)O/C=C(/C=C/OC(C)=O)C(C/C=C(\C)C#CC=C(C)C)OC(C)=O (stereo not given)
Result string: 38.5 µM (inactive)

Query string: Give U-251 GI50 for O=C(N/N=C(COc1cccc(Cl)c1)\N=C\c1ccncc1)c1ccncc1
Result string: > 100 µM (inactive)

Query string: Give U-251 GI50 for CC(=O)c1cc2c3c(c1)c1cc4c(cc1c(=O)n3CC2)OCO4
Result string: 27 µM (inactive)

Query string: Give U-251 GI50 for O=C1CC2C(=O)N(Cc3ccccc3)C1C(S(=O)(=O)c1ccccc1)C2S(=O)(=O)c1ccccc1 (stereo not given)
Result string: 2.92 µM (inactive)

Query string: Give U-251 GI50 for Cc1cccc(C)c1NC(=O)CCC(=O)NNC(=O)c1cc(O)c2ccccc2c1
Result string: 48.8 µM (inactive)

Query string: Give U-251 GI50 for CCC[C@H](O)[C@@H](CNc1cc(NC(C)=O)nc(NC(C)=O)n1)N(Cc1ccccc1)Cc1ccccc1
Result string: 47 µM (inactive)

Query string: Give U-251 GI50 for CSc1nc2cc(S(=O)(=O)N3CCCCC3)ccc2s1
Result string: > 100 µM (inactive)

* * *

# GI50 listing for each entry below
system: SNB-78; experiment: NCI tumour cell line growth inhibition, 48 h
Calls of active or inactive are those of the source. Cut-off read from the data, not from the text of the source: active = GI50 up to about 1.1 µM and inactive = higher.

compound: CC(=O)O[C@H]1C=CC(=O)C(C)CC1C (stereo partly drawn)
GI50: > 100 µM (inactive)
--
compound: Cc1cc(C)nc(NS(=O)(=O)c2ccc(Nc3c4ccccc4nc4c(C(=O)NCCN(C)C)ccc(Cl)c34)cc2)n1
GI50: 8.3 µM (inactive)

Now consider the entry below.
Query string: Using the record for CCN(CC)CC1CCCCCCCCCCC1=O (stereo not drawn) , report its GI50.
Result string: > 100 µM (inactive)

* * *

test system: HCC 2998; assay: NCI tumour cell line growth inhibition, 48 h
The source made the active and inactive calls. Cut-off read from the data, not from the text of the source: active = GI50 up to about 1.1 µM and inactive = higher.
reported endpoint: GI50

Consider the reported GI50 for these compounds:
compound: O=C(O/C=C\OC1CCCC1(c1ccccc1)c1ccccc1)c1ccccc1 (stereo not given)
reported endpoint: GI50
result: 18.7 µM (inactive)

compound: COc1cccc2cc(C)c(C(=O)c3ccccc3)nc12
reported endpoint: GI50
result: > 100 µM (inactive)

compound: Cc1cn([C@H]2[C@@H](CO)C[C@H]2O)c(=O)[nH]c1=O
reported endpoint: GI50
result: > 100 µM (inactive)

Query string: Using the record for COc1nc2c(c(=O)[nH]1)N=C(c1ccc(Cl)cc1)CC(c1ccccc1)N2 (stereo not given) , report its GI50.
Result string: 34 µM (inactive)

Query string: Using the record for NS(=O)(=O)c1ccc(NC(=O)c2cccc3c(=O)c4ccccc4[nH]c23)cc1 , report its GI50.
Result string: > 100 µM (inactive)

Query string: Using the record for C=C(Br)C(C)(Cl)CCC(Br)C(C)(C)Cl (stereo not given) , report its GI50.
Result string: > 100 µM (inactive)

Query string: Using the record for COc1ccc2c(c1)CCCN1Cc3cc(OC)c(OC)cc3CC21 (stereo not given) , report its GI50.
Result string: 15.8 µM (inactive)

Query string: Using the record for O=S(=O)(O)C(CO)c1ccccc1.O=S(=O)(O)Cc1ccccc1 (stereo not given) , report its GI50.
Result string: > 100 µM (inactive)

Query string: Using the record for C/C(=N\NC(=O)c1ccncc1)c1ccc2ccccc2c1O , report its GI50.
Result string: 2.9 µM (inactive)

Query string: Using the record for Cc1cc(C)nc(NS(=O)(=O)c2ccc(Nc3c4ccccc4nc4c(C(=O)NCCN(C)C)ccc(Cl)c34)cc2)n1 , report its GI50.
Result string: 13.8 µM (inactive)

* * *

system: SK-MEL-2; test: NCI tumour cell line growth inhibition, 48 h
Activity calls are given as the source filed them. No stated cut-off is given here; in the data, active = GI50 up to about 1.1 µM and inactive = higher.
reported endpoint: GI50

Consider the reported GI50 for these compounds:
compound: CC(NC1=NCCO1)c1ccco1 (stereo unspecified)
target or test system: SK-MEL-2
GI50: 60.4 µM (inactive)
//
compound: CCOC(=O)c1csc(NC(=O)C(C)N2CCCC2)n1 (stereo unspecified)
target or test system: SK-MEL-2
GI50: > 100 µM (inactive)
//
compound: CC1CCC2(OCCO2)[C@]2(C)CC(O)C(=O)C=C12 (stereo partly specified)
target or test system: SK-MEL-2
GI50: > 100 µM (inactive)

Query string: Using the record for NCCCCN(CCCN)C(=O)c1ccccc1 , report its GI50.
Result string: > 100 µM (inactive)

* * *

tested on: CCRF-CEM; test: NCI tumour cell line growth inhibition, 48 h
Activity calls are given as the source filed them. Rule as the data show it: active = GI50 up to about 1.1 µM and inactive = higher.
# GI50 listing for each entry below

Consider the reported GI50 for these compounds:
compound: CC(=O)O/C=C(/C=C/OC(C)=O)C(C/C=C(\C)C#CC=C(C)C)OC(C)=O (stereo not given)
result: 26.1 µM (inactive)

compound: CCN1CCC(O)(c2ccc(Oc3ccc(C)cc3)cc2)C(C(=O)c2ccc(Oc3ccc(C)cc3)cc2)C1 (stereo not given)
result: 5.13 µM (inactive)

compound: CCn1c(=O)c2c3cc(OC(C)=O)ccc3oc2c2ccc(OC(C)=O)cc21
result: 17.2 µM (inactive)

Query string: Using the record for C[C@H]1CC(=O)C[C@@H]2CC[C@@H]3[C@H](CC[C@]4(C)C(OC(=O)c5cccc6c(=O)c7ccccc7[nH]c56)CC[C@@H]34)[C@]21C (stereo not given in full) , report its GI50.
Result string: 23.8 µM (inactive)

Query string: Using the record for C=C(Br)C(C)(Cl)CCC(Br)C(C)(C)Cl (stereo not given) , report its GI50.
Result string: 20.6 µM (inactive)

* * *

system: HOP-92; test: NCI tumour cell line growth inhibition, 48 h
The source made the active and inactive calls. No stated cut-off is given here; in the data, active = GI50 up to about 1.1 µM and inactive = higher.
# GI50 listing for each entry below

compound: C/C(=N/NC(=O)CC(=O)N(C(=O)c1ccccc1Cl)c1ccc(C)cc1)c1cc2ccccc2oc1=O
target or test system: HOP-92
GI50: 21.5 µM (inactive)

Query string: Using the record for c1ccc(/N=C2\c3ccccc3CN2c2ccccc2)cc1 , report its GI50.
Result string: 46.5 µM (inactive)

Query string: Using the record for COC(=O)/C(=N\Nc1nc(S)nn1N)C(C#N)c1ccc(Cl)cc1 (configuration not stated) , report its GI50.
Result string: > 100 µM (inactive)

* * *

# GI50 listing for each entry below
tested on: NCI-H460; experiment: NCI tumour cell line growth inhibition, 48 h
The source made the active and inactive calls. No stated cut-off is given here; in the data, active = GI50 up to about 1.1 µM and inactive = higher.

compound: CC(C)(C)c1cc(C(=O)/C=C/C=C/c2ccccc2)cc(C(C)(C)C)c1O
reported endpoint: GI50
result: 15.4 µM (inactive)

Query string: Using the record for Cc1nn(C(=O)c2ccccc2O)c2c1C(c1ccccc1O)SC(=N)N2 (stereo not drawn) , report its GI50.
Result string: 4.36 µM (inactive)

Query string: Using the record for C=C1C[C@]23CC[C@@H]4C(CO)(CO)CC(=O)C[C@]4(C)[C@@H]2CC[C@H]1C3 , report its GI50.
Result string: > 100 µM (inactive)

Measured values drawn from ChEMBL document CHEMBL1201862 for this set.
